# experimental-context: in n-heptanol, 278.15 K
assay-endpoint: solubility (mole fraction)
Answers are plain numbers.

Give the reported value of solubility (mole fraction) for this record: On1nnc2ccccc21 0.0119

----------
# experimental-context: in isopentanol, 288.15 K
assay-endpoint: solubility (mole fraction)
Give bare numbers.

Give the reported value of solubility (mole fraction) for this record: On1nnc2ccccc21 0.0127

----------
# experimental-context: in isooctanol, 283.15 K
assay-endpoint: solubility (mole fraction)
One number for each entry.

Give the reported value of solubility (mole fraction) for this record: On1nnc2ccccc21 0.0115

----------
# experimental-context: in isooctanol, 278.15 K
assay-endpoint: solubility (mole fraction)
One number for each entry.

Give the reported value of solubility (mole fraction) for this record: On1nnc2ccccc21 0.0108

----------
# experimental-context: in isopropanol, 295.65 K
assay-endpoint: solubility (mole fraction)
Numbers only.

Give the reported value of solubility (mole fraction) for this record: On1nnc2ccccc21 0.0392

----------
# experimental-context: in ethanol, 298.15 K
assay-endpoint: solubility (mole fraction)
Answers are plain numbers.

Give the reported value of solubility (mole fraction) for this record: On1nnc2ccccc21 0.0528

----------
# experimental-context: in acetone, 293.15 K
assay-endpoint: solubility (mole fraction)
Give bare numbers.

Give the reported value of solubility (mole fraction) for this record: On1nnc2ccccc21 0.0214

----------
# experimental-context: in isopropanol, 298.15 K
assay-endpoint: solubility (mole fraction)

Give the reported value of solubility (mole fraction) for this record: On1nnc2ccccc21 0.0421

----------
# experimental-context: in toluene, 305.65 K
assay-endpoint: solubility (mole fraction)
One number for each entry.

Give the reported value of solubility (mole fraction) for this record: On1nnc2ccccc21 4.87e-05

----------
# experimental-context: in DMSO, 313.15 K
assay-endpoint: solubility (mole fraction)
Numbers only.

Give the reported value of solubility (mole fraction) for this record: On1nnc2ccccc21 0.157

----------
# experimental-context: in DMF, 313.15 K
assay-endpoint: solubility (mole fraction)
Give bare numbers.

Give the reported value of solubility (mole fraction) for this record: On1nnc2ccccc21 0.18

----------
# experimental-context: in isopropanol, 285.65 K
assay-endpoint: solubility (mole fraction)
Give bare numbers.

Give the reported value of solubility (mole fraction) for this record: On1nnc2ccccc21 0.0301

----------
# experimental-context: in toluene, 303.15 K
assay-endpoint: solubility (mole fraction)
One number for each entry.

Give the reported value of solubility (mole fraction) for this record: On1nnc2ccccc21 4.28e-05

----------
# experimental-context: in n-propanol, 310.65 K
assay-endpoint: solubility (mole fraction)

Give the reported value of solubility (mole fraction) for this record: On1nnc2ccccc21 0.0698

----------
# experimental-context: in isopentanol, 278.15 K
assay-endpoint: solubility (mole fraction)
Answers are plain numbers.

Give the reported value of solubility (mole fraction) for this record: On1nnc2ccccc21 0.0109

----------
# experimental-context: in isooctanol, 298.15 K
assay-endpoint: solubility (mole fraction)
Numbers only.

Give the reported value of solubility (mole fraction) for this record: On1nnc2ccccc21 0.0143

----------
# experimental-context: in n-hexanol, 278.15 K
assay-endpoint: solubility (mole fraction)
One number for each entry.

Give the reported value of solubility (mole fraction) for this record: On1nnc2ccccc21 0.0114

----------
# experimental-context: in ethanol, 300.65 K
assay-endpoint: solubility (mole fraction)
Give bare numbers.

Give the reported value of solubility (mole fraction) for this record: On1nnc2ccccc21 0.0566

----------
# experimental-context: in n-heptanol, 310.65 K
assay-endpoint: solubility (mole fraction)
One number for each entry.

Give the reported value of solubility (mole fraction) for this record: On1nnc2ccccc21 0.021

----------
# experimental-context: in acetone, 283.15 K
assay-endpoint: solubility (mole fraction)
One number for each entry.

Give the reported value of solubility (mole fraction) for this record: On1nnc2ccccc21 0.016

----------
# experimental-context: in isopropanol, 290.65 K
assay-endpoint: solubility (mole fraction)
Give bare numbers.

Give the reported value of solubility (mole fraction) for this record: On1nnc2ccccc21 0.0341

----------
# experimental-context: in DMF, 303.15 K
assay-endpoint: solubility (mole fraction)

Give the reported value of solubility (mole fraction) for this record: On1nnc2ccccc21 0.121

----------
# experimental-context: in n-heptanol, 293.15 K
assay-endpoint: solubility (mole fraction)
Answers are plain numbers.

Give the reported value of solubility (mole fraction) for this record: On1nnc2ccccc21 0.0152

----------
# experimental-context: in acetonitrile, 308.15 K
assay-endpoint: solubility (mole fraction)
Give bare numbers.

Give the reported value of solubility (mole fraction) for this record: On1nnc2ccccc21 0.00631

----------
# experimental-context: in n-propanol, 293.15 K
assay-endpoint: solubility (mole fraction)
Answers are plain numbers.

Give the reported value of solubility (mole fraction) for this record: On1nnc2ccccc21 0.044

----------
# experimental-context: in isooctanol, 290.65 K
assay-endpoint: solubility (mole fraction)

Give the reported value of solubility (mole fraction) for this record: On1nnc2ccccc21 0.0127

----------
# experimental-context: in methanol, 278.15 K
assay-endpoint: solubility (mole fraction)
Give bare numbers.

Give the reported value of solubility (mole fraction) for this record: On1nnc2ccccc21 0.0223

----------
# experimental-context: in isooctanol, 295.65 K
assay-endpoint: solubility (mole fraction)
Answers are plain numbers.

Give the reported value of solubility (mole fraction) for this record: On1nnc2ccccc21 0.0137

----------
# experimental-context: in DMSO, 290.65 K
assay-endpoint: solubility (mole fraction)
Numbers only.

Give the reported value of solubility (mole fraction) for this record: On1nnc2ccccc21 0.0592

----------
# experimental-context: in isopropanol, 313.15 K
assay-endpoint: solubility (mole fraction)
One number for each entry.

Give the reported value of solubility (mole fraction) for this record: On1nnc2ccccc21 0.0637

----------
# experimental-context: in n-heptanol, 308.15 K
assay-endpoint: solubility (mole fraction)
Numbers only.

Give the reported value of solubility (mole fraction) for this record: On1nnc2ccccc21 0.02

----------
# experimental-context: in isopentanol, 293.15 K
assay-endpoint: solubility (mole fraction)
Answers are plain numbers.

Give the reported value of solubility (mole fraction) for this record: On1nnc2ccccc21 0.0137

----------
# experimental-context: in DMF, 283.15 K
assay-endpoint: solubility (mole fraction)
Numbers only.

Give the reported value of solubility (mole fraction) for this record: On1nnc2ccccc21 0.0522

----------
# experimental-context: in acetone, 308.15 K
assay-endpoint: solubility (mole fraction)
One number for each entry.

Give the reported value of solubility (mole fraction) for this record: On1nnc2ccccc21 0.033

----------
# experimental-context: in 1,4-dioxane, 290.65 K
assay-endpoint: solubility (mole fraction)
Give bare numbers.

Give the reported value of solubility (mole fraction) for this record: On1nnc2ccccc21 0.0158

----------
# experimental-context: in acetonitrile, 283.15 K
assay-endpoint: solubility (mole fraction)

Give the reported value of solubility (mole fraction) for this record: On1nnc2ccccc21 0.00271

----------
# experimental-context: in isopentanol, 290.65 K
assay-endpoint: solubility (mole fraction)
Numbers only.

Give the reported value of solubility (mole fraction) for this record: On1nnc2ccccc21 0.0132

----------
# experimental-context: in n-heptanol, 290.65 K
assay-endpoint: solubility (mole fraction)
Numbers only.

Give the reported value of solubility (mole fraction) for this record: On1nnc2ccccc21 0.0146

----------
# experimental-context: in ethyl acetate, 313.15 K
assay-endpoint: solubility (mole fraction)

Give the reported value of solubility (mole fraction) for this record: On1nnc2ccccc21 0.0247

----------
# experimental-context: in methanol, 280.65 K
assay-endpoint: solubility (mole fraction)

Give the reported value of solubility (mole fraction) for this record: On1nnc2ccccc21 0.0239

----------
# experimental-context: in DMF, 290.65 K
assay-endpoint: solubility (mole fraction)
Answers are plain numbers.

Give the reported value of solubility (mole fraction) for this record: On1nnc2ccccc21 0.072

----------
# experimental-context: in 2-butanone, 295.65 K
assay-endpoint: solubility (mole fraction)
Answers are plain numbers.

Give the reported value of solubility (mole fraction) for this record: On1nnc2ccccc21 0.0259

----------
# experimental-context: in acetonitrile, 300.65 K
assay-endpoint: solubility (mole fraction)

Give the reported value of solubility (mole fraction) for this record: On1nnc2ccccc21 0.00488

----------
# experimental-context: in acetonitrile, 295.65 K
assay-endpoint: solubility (mole fraction)
Answers are plain numbers.

Give the reported value of solubility (mole fraction) for this record: On1nnc2ccccc21 0.00414

----------
# experimental-context: in methanol, 288.15 K
assay-endpoint: solubility (mole fraction)
Give bare numbers.

Give the reported value of solubility (mole fraction) for this record: On1nnc2ccccc21 0.0294

----------
# experimental-context: in n-hexanol, 308.15 K
assay-endpoint: solubility (mole fraction)
Give bare numbers.

Give the reported value of solubility (mole fraction) for this record: On1nnc2ccccc21 0.019

----------
# experimental-context: in acetone, 285.65 K
assay-endpoint: solubility (mole fraction)

Give the reported value of solubility (mole fraction) for this record: On1nnc2ccccc21 0.0171

----------
# experimental-context: in isooctanol, 305.65 K
assay-endpoint: solubility (mole fraction)
Give bare numbers.

Give the reported value of solubility (mole fraction) for this record: On1nnc2ccccc21 0.0161

----------
# experimental-context: in n-propanol, 298.15 K
assay-endpoint: solubility (mole fraction)
Answers are plain numbers.

Give the reported value of solubility (mole fraction) for this record: On1nnc2ccccc21 0.0502
